Origin of values: patent US6962909B2

- System: vitelline capillaries of 3- to 5-day chick embryo
- procedure_summary: Chick embryo vitelline capillary regression assay
- Type: in vivo
- Parameters: key: + = Vascular reactivity; 0 = No vascular reactivity; +/− = Equivocal reactivity
- stated_conditions: 1 μg applied; 60 minutes
readout_label: Vascular reactivity (capillary regression)

See these solved cases before continuing.
Ask: Report Vascular reactivity (capillary regression) for CC(CCC(=O)O)[C@H]1CCC2C3C(CC[C@@]21C)[C@@]1(C)CC[C@@H](NCCN)C[C@H]1C[C@H]3O (stereo partly drawn)
Result: 0

Ask: Tell us which Vascular reactivity (capillary regression) value is on record for COC(=O)CCC(C)[C@H]1CCC2C3C(CC[C@@]21C)[C@@]1(C)CC[C@H](NCCCNCCCCNCCCN)C[C@@H]1C[C@H]3O (stereo partly drawn)
Result: +

Ask: Item CC(CCC(=O)O)[C@H]1CCC2C3C(CC[C@@]21C)[C@@]1(C)CC[C@@H](NCCCNCCCCN)C[C@@H]1C[C@H]3O (stereo partly drawn) : provide Vascular reactivity (capillary regression)
Result: +

Ask: For COC(=O)CCC(C)[C@H]1CCC2C3C(CC[C@@]21C)[C@@]1(C)CC[C@H](NCCCNCCCCNCCCN)C[C@H]1C[C@H]3O (stereo partly drawn) , write its Vascular reactivity (capillary regression).
Result: +/−

Ask: Supply measured Vascular reactivity (capillary regression) of COC(=O)CCC(C)[C@H]1CCC2C3C(CC[C@@]21C)[C@@]1(C)CC[C@H](NCCN)C[C@H]1C[C@H]3O (stereo partly drawn) in your reply.
Result: 0

--- query ---
Ask: Tell me its Vascular reactivity (capillary regression) given CC(CC[C@@H](OS(=O)(=O)O)C(C)C)[C@H]1CCC2C3C(CC[C@@]21C)[C@@]1(C)CC[C@H](NCCCNCCCCNCCCN)C[C@@H]1C[C@H]3O (stereo partly drawn) as the entry.
Result: +

---

- Tested on: vitelline capillaries of 3- to 5-day chick embryo
- procedure_summary: Chick embryo vitelline capillary regression assay
- Assay type: in vivo
- Set-up: key: + = Vascular reactivity; 0 = No vascular reactivity; +/− = Equivocal reactivity
- stated_conditions: 0.01 μg applied; 60 minutes
readout_label: Vascular reactivity (capillary regression)

The examples below pair each entry with its known result.
Ask: Return reported Vascular reactivity (capillary regression). Input compound: CC(CC[C@@H](OS(=O)(=O)O)C(C)C)[C@H]1CCC2C3C(CC[C@@]21C)[C@@]1(C)CC[C@H](NCCCNCCCCNCCCN)C[C@@H]1C[C@H]3O (some centres unmarked)
Result: +

Ask: Give the value of Vascular reactivity (capillary regression) reported for the following: CC(CCC(=O)O)[C@H]1CCC2C3C(CC[C@@]21C)[C@@]1(C)CC[C@H](NCCN)C[C@H]1C[C@H]3O (some centres unmarked)
Result: +

Ask: Please report Vascular reactivity (capillary regression) for the following compound: CC(CC[C@@H](OS(=O)(=O)O)C(C)C)[C@H]1CCC2C3C(CC[C@@]21C)[C@@]1(C)CC[C@H](NCCCNCCCCN)C[C@@H]1C[C@H]3O (some centres unmarked)
Result: +

Ask: # return recorded Vascular reactivity (capillary regression) for entry COC(=O)CCC(C)[C@H]1CCC2C3C(CC[C@@]21C)[C@@]1(C)CC[C@@H](NCCN)C[C@H]1C[C@H]3O (some centres unmarked)
Result: +/−

Now for the compound whose Vascular reactivity (capillary regression) we want.
Ask: State its Vascular reactivity (capillary regression) for this compound: CC(CCC(=O)O)[C@H]1CCC2C3CC[C@H]4C[C@@H](NCCCNCCCCN)CC[C@]4(C)C3CC[C@@]21C (some centres unmarked)
Result: +
